Data credit: patent US9499550B2

# Test system: HCV genotype 1b (Con1) replicon in HUH-7 cells
# test.method.notes: HCV replicon luciferase reporter assay, genotype 1b
# Assay type: cell-based
# details: Hepatitis C virus, Huh-7, 72 h, HCV genotype 1b replicon luciferase, 3 days incubation, read-out: LE_1b (EC50, range)
pEC50: −log10 of the molar value.
outcome.measure: pEC50

Known pEC50 results, listed for orientation:
[[record]]
compound = "CC(C)Oc1cc2ccccc2c(O[C@@H]2C[C@H]3C(=O)N[C@]4(C(=O)NS(=O)(=O)C5(CF)CC5)C[C@H]4/C=C\\CC[C@@H](C)C[C@@H](C)[C@H](NC(=O)OC(C)(C)C(C)(F)F)C(=O)N3C2)n1 [Compound 6118]"
target_system = "HCV genotype 1b (Con1) replicon in HUH-7 cells"
observed = "8.30 to 9.00"

[[record]]
compound = "CCOc1ccc2nc(C(F)(F)F)c(O[C@@H]3C[C@H]4C(=O)N[C@]5(C(=O)NS(=O)(=O)C6(C)CC6)C[C@H]5/C=C\\CC[C@@H](C)C[C@@H](C)[C@H](NC(=O)OC(C)(C)C)C(=O)N4C3)nc2c1 [Compound 4346]"
target_system = "HCV genotype 1b (Con1) replicon in HUH-7 cells"
observed = "9.30 to 10.00"


Exercise: Requested read-out: pEC50. Entry: COc1ccc2nc(C(C)C)c(O[C@@H]3C[C@H]4C(=O)N[C@]5(C(=O)NS(=O)(=O)C6CC6)C[C@H]5/C=C\CC[C@H](C)C[C@@H](C)[C@H](NC(=O)OC(C)(C)C)C(=O)N4C3)nc2c1 [Compound 4315]
Solution: 8.30 to 9.00

Exercise: Further, for COc1cc2cc(F)ccc2c(O[C@@H]2C[C@H]3C(=O)N[C@]4(C(=O)NS(=O)(=O)C5(CF)CC5)C[C@H]4/C=C\CC[C@@H](C)C[C@@H](C)[C@H](NC(=O)OC(C)(C)C(F)(F)F)C(=O)N3C2)n1 [Compound 3214] ?
Solution: 9.30 to 10.00

Exercise: Further, for CC[C@@H]1C[C@H](C)CC/C=C\[C@@H]2C[C@@]2(C(=O)NS(=O)(=O)C2(C)CC2)NC(=O)[C@@H]2C[C@@H](Oc3ncc(OC)c4ccc(F)cc34)CN2C(=O)[C@H]1NC(=O)OC(C)(C)C(F)F [Compound 5529] ?
Solution: 9.30 to 10.00

Exercise: Further, for C[C@@H]1CC/C=C\[C@@H]2C[C@@]2(C(=O)NS(=O)(=O)C2(C)CC2)NC(=O)[C@@H]2C[C@@H](Oc3ncc(OC4CC4)c4ccccc34)CN2C(=O)[C@@H](NC(=O)OC2CCCCC2)[C@H](C)C1 [Compound 4055] ?
Solution: > 8.26

----------
# Tested on: HCV genotype 1b (Con1) replicon in HUH-7 cells
# test.method.notes: HCV replicon luciferase reporter assay, genotype 1b
# Format: cell-based
# details: Hepatitis C virus, Huh-7, 72 h, HCV genotype 1b replicon luciferase, 3 days incubation, read-out: LE_1b (EC50, range)
pEC50: −log10 of the molar value.
outcome.measure: pEC50

[[record]]
chemical_smiles = "CC(C)Oc1ccc2c(O[C@@H]3C[C@H]4C(=O)N[C@]5(C(=O)NS(=O)(=O)C6(C)CC6)C[C@H]5/C=C\\CC[C@@H](C)C[C@@H](C)[C@H](NC(=O)OC(C)(C)C)C(=O)N4C3)nccc2c1"
target_system = "HCV genotype 1b (Con1) replicon in HUH-7 cells"
observed = "> 8.26"


Attention now turns to another entry.
Exercise: Which pEC50 is reported with HCV genotype 1b (Con1) replicon in HUH-7 cells for this entry: "COc1ccc2nc(OC)c(O[C@@H]3C[C@H]4C(=O)N[C@]5(C(=O)NS(=O)(=O)C6(C)CC6)C[C@H]5/C=C\CC[C@@H](C)C[C@@H](C)[C@H](NC(=O)OC(C)(C)C)C(=O)N4C3)cc2c1" ?
Solution: 9.30 to 10.00

----------
# Tested on: HCV genotype 1b (Con1) replicon in HUH-7 cells
# test.method.notes: HCV replicon luciferase reporter assay, genotype 1b
# Format: cell-based
# details: Hepatitis C virus, Huh-7, 72 h, HCV genotype 1b replicon luciferase, 3 days incubation, read-out: LE_1b (EC50, range)
outcome.measure: EC50

Exercise: Requested read-out: EC50. Entry: CC[C@@H]1C[C@H](C)CC/C=C\[C@@H]2C[C@@]2(C(=O)NS(=O)(=O)C2(C)CC2)NC(=O)[C@@H]2C[C@@H](Oc3ncc(C(=O)O)c4cc(OC)ccc34)CN2C(=O)[C@H]1NC(=O)OC(C)(C)C [Compound 4277]
Solution: 35 to 620 nM

Exercise: Further, for CCOc1cc2cc(OC)ccc2c(O[C@@H]2C[C@H]3C(=O)N[C@]4(C(=O)NS(=O)(=O)C5(C)CC5)C[C@H]4/C=C\CC[C@@H](C)C[C@@H](C)[C@H](NC(=O)OC(C)(C)C(F)(F)F)C(=O)N3C2)n1 [Compound 3198] ?
Solution: 1.01 to 5 nM

Exercise: Further, for CC[C@@H]1C[C@H](C)CC/C=C\[C@@H]2C[C@@]2(C(=O)NS(=O)(=O)C2CC2)NC(=O)[C@@H]2C[C@@H](Oc3nc4ccc(OC)cc4nc3N(C)C)CN2C(=O)[C@H]1NC(=O)OC(C)(C)C [Compound 4304] ?
Solution: 5.01 to 35 nM

Exercise: Further, for CCOc1cc2cc(OC)ccc2c(O[C@@H]2C[C@H]3C(=O)N[C@]4(C(=O)NS(=O)(=O)C5(C)CC5)C[C@H]4/C=C\CC[C@@H](C)C[C@@H](C)[C@H](NC(=O)OC(C)(C)C)C(=O)N3C2)n1 [Compound 3194] ?
Solution: 0.1 to 0.5 nM

----------
Here the recorded EC50 is given for each entry.
# System: HCV genotype 1b (Con1) replicon in HUH-7 cells
# test.method.notes: HCV replicon luciferase reporter assay, genotype 1b
# Assay type: cell-based
# details: Hepatitis C virus, Huh-7, 72 h, HCV genotype 1b replicon luciferase, 3 days incubation, read-out: LE_1b (EC50, range)

Known EC50 results, listed for orientation:
[[record]]
chemical_smiles = "C[C@H]1CC/C=C\\[C@@H]2C[C@@]2(C(=O)NS(=O)(=O)C2(CF)CC2)NC(=O)[C@@H]2C[C@@H](Oc3nc4c(c5ccccc35)OCCC4)CN2C(=O)[C@@H](NC(=O)OC(C)(C)C(C)(F)F)[C@H](C)C1"
outcome_measure = "EC50"
observed = "4.82 to 103 nM"

[[record]]
chemical_smiles = "COc1cnc(O[C@@H]2C[C@H]3C(=O)N[C@]4(C(=O)NS(=O)(=O)C5(CF)CC5)C[C@H]4CCCC[C@@H](C)C[C@@H](C)[C@H](NC(=O)OC(C)(C)C(C)(F)F)C(=O)N3C2)c2ccccc12"
outcome_measure = "EC50"
observed = "< 5.46 nM"

[[record]]
chemical_smiles = "COc1ccc2c(O[C@@H]3C[C@H]4C(=O)N[C@]5(C(=O)NS(=O)(=O)C6(C)CC6)C[C@H]5/C=C\\CC[C@@H](C)C[C@@H](C)[C@H](NC(=O)OC(C)(C)C(F)(F)F)C(=O)N4C3)nc(-c3ccc(OC(C)C)cc3)c(OC)c2c1"
outcome_measure = "EC50"
observed = "< 5.46 nM"

[[record]]
chemical_smiles = "CC[C@@H]1C[C@H](C)CC/C=C\\[C@@H]2C[C@@]2(C(=O)NS(=O)(=O)C2(CF)CC2)NC(=O)[C@@H]2C[C@@H](Oc3nc4c(c5ccccc35)CCCO4)CN2C(=O)[C@H]1NC(=O)OC(C)(C)C(C)(F)F"
outcome_measure = "EC50"
observed = "0.51 to 1 nM"


Exercise: Requested read-out: EC50. Entry: "[2H]C([2H])([2H])C(OC(=O)N[C@@H]1C(=O)N2C[C@H](Oc3nc(-c4ccc(OC(C)C)nc4)cc4cc(OC)ccc34)C[C@H]2C(=O)N[C@]2(C(=O)NS(=O)(=O)C3CC3)C[C@H]2/C=C\CC[C@H](C)C[C@H]1C)(C([2H])([2H])[2H])C(F)(F)F"
Solution: < 5.46 nM

Exercise: Further, for "CC[C@@H]1C[C@@H](C)CC/C=C\[C@@H]2C[C@@]2(C(=O)NS(=O)(=O)C2CC2)NC(=O)[C@@H]2C[C@@H](Oc3nc(OC)cc4ccccc34)CN2C(=O)[C@H]1NC(=O)OC(C)(C)C(F)(F)F" ?
Solution: < 5.46 nM

Exercise: Further, for "COc1ccc2c(O[C@@H]3C[C@H]4C(=O)N[C@]5(C(=O)NS(=O)(=O)C6(C)CC6)C[C@H]5/C=C\CC[C@H](C)C[C@@H](C)[C@H](NC(=O)OC(C)(C)C(C)(F)F)C(=O)N4C3)nc(-c3ccc4c(c3)OCCO4)cc2c1" ?
Solution: < 5.46 nM

Exercise: Further, for "CCOc1cc2ccccc2c(O[C@@H]2C[C@H]3C(=O)N[C@]4(C(=O)NS(=O)(=O)C5(C)CC5)C[C@H]4/C=C\CC[C@@H](C)C[C@@H](C)[C@H](NC(=O)OC(C)(C)C(C)(F)F)C(=O)N3C2)n1" ?
Solution: 0.1 to 0.5 nM

Exercise: Further, for "CC[C@@H]1C[C@H](C)CC/C=C\[C@@H]2C[C@@]2(C(=O)NS(=O)(=O)C2(C)CC2)NC(=O)[C@@H]2C[C@@H](Oc3nc(OC)cc4cc(F)ccc34)CN2C(=O)[C@H]1NC(=O)OC(C)(C)C(F)(F)F" ?
Solution: 0.1 to 0.5 nM

Exercise: Further, for "CCOc1ccc2ncc(O[C@@H]3C[C@H]4C(=O)N[C@]5(C(=O)NS(=O)(=O)C6(C)CC6)C[C@H]5/C=C\CC[C@@H](C)C[C@@H](C)[C@H](NC(=O)OC(C)(C)C)C(=O)N4C3)cc2c1" ?
Solution: 1.01 to 5 nM

Exercise: Further, for "CC(C)Oc1cc2ccccc2c(O[C@@H]2C[C@H]3C(=O)N[C@]4(C(=O)NS(=O)(=O)C5(C)CC5)C[C@H]4/C=C\CC[C@@H](C)C[C@@H](C)[C@H](NC(=O)OC(C)(C)C)C(=O)N3C2)n1" ?
Solution: 0.1 to 0.5 nM

Exercise: Further, for "CCn1nc(O[C@@H]2C[C@H]3C(=O)N[C@]4(C(=O)NS(=O)(=O)C5(C)CC5)C[C@H]4/C=C\CC[C@H](C)C[C@@H](C)[C@H](NC(=O)OC(C)(C)C(F)(F)F)C(=O)N3C2)c2ccccc2c1=O" ?
Solution: 4.82 to 103 nM

Exercise: Further, for "CC[C@@H]1C[C@H](C)CC/C=C\[C@@H]2C[C@@]2(C(=O)NS(=O)(=O)C2(C)CC2)NC(=O)[C@@H]2C[C@@H](Oc3ncc(OC)c4ccc(F)cc34)CN2C(=O)[C@H]1NC(=O)OC(C)(C)C(C)(F)F" ?
Solution: 0.1 to 0.5 nM

Exercise: Further, for "[2H]C([2H])([2H])Oc1cc2ccnc(O[C@@H]3C[C@H]4C(=O)N[C@]5(C(=O)NS(=O)(=O)C6(C)CC6)C[C@H]5/C=C\CC[C@@H](C)C[C@@H](CC)[C@H](NC(=O)OC(C)(C)C(F)(F)F)C(=O)N4C3)c2cc1F" ?
Solution: 0.51 to 1 nM

Exercise: Further, for "CC[C@@H]1C[C@H](C)CC/C=C\[C@@H]2C[C@@]2(C(=O)NS(=O)(=O)C2(CF)CC2)NC(=O)[C@@H]2C[C@@H](Oc3nccc4c5c(ccc34)N(C)CCO5)CN2C(=O)[C@H]1NC(=O)OC(C)(C)C(F)(F)F" ?
Solution: 1.01 to 5 nM

Exercise: Further, for "C[C@@H]1CC/C=C\[C@@H]2C[C@@]2(C(=O)NS(=O)(=O)C2(C)CC2)NC(=O)[C@@H]2C[C@@H](Oc3nc4c(c5ccccc35)OCCC4)CN2C(=O)[C@@H](NC(=O)OC(C)(C)C(F)(F)F)[C@H](C)C1" ?
Solution: < 5.46 nM
